Numbers sourced from ChEMBL document CHEMBL1641456.

experiment: Cmax in dog at 5 mg/kg, po after 1 hr; format: ADME, organism-based, Canis lupus familiaris; parameters: dose 5 mg/kg, route oral; settings: in vivo
Kindly supply the reported Cmax values for the records listed here.
One number for each entry, in ng/mL.

Worked examples, 2 compounds total:
> print(dat)
                          molecule.smiles  outcome.measure  value.reported
1        Fc1cccc(Cl)c1Oc1cccc(F)c1OC1CNC1             Cmax             919
2  Fc1cccc(Cl)c1Oc1cccc(F)c1O[C@@H]1CCNC1             Cmax             146

query: Please list Cmax recorded for the compound Cc1cccc(F)c1Oc1cccc(F)c1OC1CNC1
result: 525
